molecular target: UniProt:P11229; assay: cell-based
Sequence (P11229 whole entry): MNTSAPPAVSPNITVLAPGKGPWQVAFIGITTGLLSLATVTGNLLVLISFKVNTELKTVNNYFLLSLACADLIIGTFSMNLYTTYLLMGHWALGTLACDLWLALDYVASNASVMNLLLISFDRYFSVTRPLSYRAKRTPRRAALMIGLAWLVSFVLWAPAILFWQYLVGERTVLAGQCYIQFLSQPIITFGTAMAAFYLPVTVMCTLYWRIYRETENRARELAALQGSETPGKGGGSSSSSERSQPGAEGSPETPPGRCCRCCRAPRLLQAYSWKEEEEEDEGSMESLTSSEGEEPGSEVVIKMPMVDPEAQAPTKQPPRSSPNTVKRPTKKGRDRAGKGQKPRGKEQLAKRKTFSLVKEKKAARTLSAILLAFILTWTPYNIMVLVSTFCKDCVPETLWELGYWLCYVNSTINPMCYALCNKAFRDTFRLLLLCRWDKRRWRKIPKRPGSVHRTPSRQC
pEC50: −log10 of the molar value.
REPORTED ENDPOINT: pEC50

>>> result_number("CCCCC1CCN(CCCN2C(=O)CCc3ccccc32)CC1")
7.65

====

biological target: human M5 receptors (Homo sapiens, UniProt P08912)
Sequence (P08912 whole entry): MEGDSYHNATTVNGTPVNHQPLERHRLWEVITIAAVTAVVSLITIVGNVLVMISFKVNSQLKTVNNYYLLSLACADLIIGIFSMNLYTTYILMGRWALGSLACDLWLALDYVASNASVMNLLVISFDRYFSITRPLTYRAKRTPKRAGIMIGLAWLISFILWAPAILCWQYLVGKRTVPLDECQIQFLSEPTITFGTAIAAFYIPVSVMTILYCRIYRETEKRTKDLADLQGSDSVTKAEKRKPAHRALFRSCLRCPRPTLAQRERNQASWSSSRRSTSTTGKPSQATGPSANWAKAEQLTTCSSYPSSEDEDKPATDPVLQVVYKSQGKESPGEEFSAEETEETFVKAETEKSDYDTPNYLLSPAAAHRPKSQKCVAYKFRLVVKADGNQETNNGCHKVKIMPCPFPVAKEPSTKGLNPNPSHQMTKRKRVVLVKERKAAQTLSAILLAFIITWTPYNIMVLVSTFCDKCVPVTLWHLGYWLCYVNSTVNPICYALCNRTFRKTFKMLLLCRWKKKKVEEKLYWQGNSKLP
REPORTED ENDPOINT: IC50 (µM)

>>> result_number("CCCCC1CCN(CCCN2C(=O)CCc3ccccc32)CC1 [77-LH-28-1]")
2.22

====

target: human M4 receptors (Homo sapiens)
Sequence (P08173 whole entry): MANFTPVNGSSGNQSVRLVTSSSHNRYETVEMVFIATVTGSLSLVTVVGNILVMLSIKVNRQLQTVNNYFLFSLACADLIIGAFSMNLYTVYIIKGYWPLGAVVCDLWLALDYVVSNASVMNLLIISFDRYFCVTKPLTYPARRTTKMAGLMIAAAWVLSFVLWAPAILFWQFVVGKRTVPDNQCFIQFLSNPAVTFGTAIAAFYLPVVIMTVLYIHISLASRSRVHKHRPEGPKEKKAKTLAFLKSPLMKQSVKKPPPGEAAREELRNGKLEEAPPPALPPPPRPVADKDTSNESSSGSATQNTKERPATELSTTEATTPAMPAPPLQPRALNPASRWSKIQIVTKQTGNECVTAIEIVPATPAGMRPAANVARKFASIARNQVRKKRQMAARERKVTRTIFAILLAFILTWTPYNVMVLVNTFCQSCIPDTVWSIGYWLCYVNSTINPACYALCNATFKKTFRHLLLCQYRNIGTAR
pIC50: −log10 of the molar value.
REPORTED ENDPOINT: pIC50

>>> result_number("CCCCC1CCN(CCCN2C(=O)CCc3ccccc32)CC1")
5.69

====

target: human M2 receptors (Homo sapiens, UniProt P08172)
Sequence (P08172 whole entry): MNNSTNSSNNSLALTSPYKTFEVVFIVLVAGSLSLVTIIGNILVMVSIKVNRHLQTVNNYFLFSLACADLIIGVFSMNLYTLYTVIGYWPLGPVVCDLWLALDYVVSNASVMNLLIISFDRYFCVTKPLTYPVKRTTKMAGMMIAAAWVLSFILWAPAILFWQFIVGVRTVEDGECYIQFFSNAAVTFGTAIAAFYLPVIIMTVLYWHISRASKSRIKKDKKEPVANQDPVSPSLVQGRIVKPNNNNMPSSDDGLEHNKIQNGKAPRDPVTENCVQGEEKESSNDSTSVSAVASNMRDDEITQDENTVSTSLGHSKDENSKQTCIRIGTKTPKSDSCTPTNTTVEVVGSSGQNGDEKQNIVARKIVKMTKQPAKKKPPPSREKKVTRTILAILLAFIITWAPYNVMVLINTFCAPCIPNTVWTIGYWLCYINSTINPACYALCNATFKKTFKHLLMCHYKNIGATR
pIC50: −log10 of the molar value.
REPORTED ENDPOINT: pIC50

>>> result_number("CCCCC1CCN(CCCN2C(=O)CCc3ccccc32)CC1")
5.93

Sourced from paper PMC4677984
